- System: R275C/beta4
- Procedure Summary: modulators of BK channel variants, profiling panel, selectivity assay, cell-based, U2OS BacMam, thallium flux, beta subunits (AID 1259406);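 further: initial slope of Thallos dye fluorescence rise after thallium is added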
- Study Conditions: at 30 µM
Field: class. Source value: log fold change Tl+ flux. Ranges: A: < -0.01; B: ≥ -0.01 and < 0.03; C: ≥ 0.03

[Q] // bin(item) where item = NS(=O)(=O)c1cc2c(cc1C(F)(F)F)NC(Cc1ccccc1)NS2(=O)=O (stereo unspecified)
[A] B

[Q] // bin(item) where item = `CN(C)c1ccc(O)c2c1C[C@H]1C[C@H]3[C@H](N(C)C)C(=O)C(C(N)=O)=C(O)[C@@]3(O)C(=O)C1=C2O`
[A] A

[Q] // bin(item) where item = `CCC(=O)O[C@]1(C(=O)CCl)[C@@H](C)C[C@H]2[C@@H]3CCC4=CC(=O)C=C[C@]4(C)[C@@]3(F)[C@@H](O)C[C@@]21C`
[A] C

[Q] // bin(item) where item = `CCCCCCCCCCC[C@@H](C[C@@H]1OC(=O)[C@H]1CCCCCC)OC(=O)[C@H](CC(C)C)NC=O`
[A] A

[Q] // bin(item) where item = `CN[C@@H]1[C@H](O)[C@H](NC)[C@H]2O[C@@]3(O)C(=O)C[C@@H](C)O[C@H]3O[C@@H]2[C@H]1O`
[A] C

[Q] // bin(item) where item = CN(C)CCOC(c1ccc(Cl)cc1)c1ccccn1 (stereo unspecified)
[A] B

[Q] // bin(item) where item = `CCOC(=O)[C@H](CCc1ccccc1)N[C@@H](C)C(=O)N1Cc2ccccc2C[C@H]1C(=O)O`
[A] B

[Q] // bin(item) where item = `CN(C)CCC[C@@]1(c2ccc(F)cc2)OCc2cc(C#N)ccc21`
[A] B

[Q] // bin(item) where item = `C/C=C/C(=O)N(CC)c1ccccc1C`
[A] B

[Q] // bin(item) where item = CC1Cc2ccccc2N1NC(=O)c1ccc(Cl)c(S(N)(=O)=O)c1 (stereo unspecified)
[A] B

[Q] // bin(item) where item = `CCCCNC(=O)NS(=O)(=O)c1ccc(C)cc1`
[A] B

[Q] // bin(item) where item = `Cc1cn([C@H]2C[C@H](N=[N+]=[N-])[C@@H](CO)O2)c(=O)[nH]c1=O`
[A] B

[Q] // bin(item) where item = `CN(C)CCCN1c2ccccc2CCc2ccccc21`
[A] C

[Q] // bin(item) where item = `CCCNC(=O)NS(=O)(=O)c1ccc(Cl)cc1`
[A] B

[Q] // bin(item) where item = `CC(C)(C)NC[C@H](O)COc1nsnc1N1CCOCC1`
[A] A

[Q] // bin(item) where item = `C[C@@H]1O[C@@H](OC[C@H]2O[C@@H](Oc3c(-c4ccc(O)c(O)c4)oc4cc(O)cc(O)c4c3=O)[C@H](O)[C@@H](O)[C@@H]2O)[C@H](O)[C@H](O)[C@H]1O`
[A] B

[Q] // bin(item) where item = `C#C[C@]1(O)CC[C@H]2[C@@H]3CCC4=CC(=O)CC[C@@H]4[C@H]3CC[C@@]21CC`
[A] A

[Q] // bin(item) where item = `CC12CC3CC(C)(C1)CC(N)(C3)C2`
[A] B

[Q] // bin(item) where item = `Cc1onc(-c2ccccc2)c1-c1ccc(S(N)(=O)=O)cc1`
[A] C

[Q] // bin(item) where item = CC1COc2c(N3CCN(C)CC3)c(F)cc3c(=O)c(C(=O)O)cn1c23 (stereo unspecified)
[A] B

[Q] // bin(item) where item = `Cc1ccc(Cl)c(Nc2ccccc2C(=O)O)c1Cl`
[A] C

[Q] // bin(item) where item = `CCCSc1ccc2nc(NC(=O)OC)[nH]c2c1`
[A] A

[Q] // bin(item) where item = `N[C@@H](Cc1cc(I)c(Oc2cc(I)c(O)c(I)c2)c(I)c1)C(=O)O`
[A] C

[Q] // bin(item) where item = `CC1(C)O[C@@H]2[C@@H](CO[C@@]3(COS(N)(=O)=O)OC(C)(C)O[C@@H]23)O1`
[A] A

[Q] // bin(item) where item = `c1ccc(CC2=NCCN2)cc1`
[A] B

[Q] // bin(item) where item = CC(C)NCC(O)c1cc(O)cc(O)c1 (stereo unspecified)
[A] C

[Q] // bin(item) where item = `C#C[C@]1(O)CC[C@H]2[C@@H]3CCC4=Cc5oncc5C[C@]4(C)[C@H]3CC[C@@]21C`
[A] C

[Q] // bin(item) where item = `CC(=O)S[C@@H]1CC2=CC(=O)CC[C@]2(C)[C@H]2CC[C@@]3(C)[C@@H](CC[C@@]34CCC(=O)O4)[C@H]12`
[A] C

[Q] // bin(item) where item = `CC(C)Oc1ccc2c(=O)c(-c3ccccc3)coc2c1`
[A] A

[Q] // bin(item) where item = `NC(=O)c1cnccn1`
[A] A

[Q] // bin(item) where item = `CCCCNc1cc(C(=O)O)cc(S(N)(=O)=O)c1Oc1ccccc1`
[A] B

[Q] // bin(item) where item = c1ccc(-c2ccc(C(c3ccccc3)n3ccnc3)cc2)cc1 (stereo unspecified)
[A] A

[Q] // bin(item) where item = `CC[N+](C)(C)c1cccc(O)c1`
[A] A

[Q] // bin(item) where item = `CS(=O)(=O)OCCCCOS(C)(=O)=O`
[A] A

[Q] // bin(item) where item = `N[C@@H](C(=O)N[C@@H]1C(=O)N2C(C(=O)O)=C(Cl)CS[C@H]12)c1ccccc1`
[A] A

[Q] // bin(item) where item = `c1ccc2c(CC3=NCCN3)cccc2c1`
[A] A

[Q] // bin(item) where item = CC(C)C1CCC(C(=O)N[C@H](Cc2ccccc2)C(=O)O)CC1 (stereo partly specified)
[A] C

[Q] // bin(item) where item = `Cc1ccc(S(=O)(=O)NC(=O)NN2CCCCCC2)cc1`
[A] C

Reference for the values: PubChem BioAssay
